Target: human NOX4 (Homo sapiens, UniProt Q9NPH5)
Construct: membrane fraction used
Sequence (Q9NPH5 whole entry): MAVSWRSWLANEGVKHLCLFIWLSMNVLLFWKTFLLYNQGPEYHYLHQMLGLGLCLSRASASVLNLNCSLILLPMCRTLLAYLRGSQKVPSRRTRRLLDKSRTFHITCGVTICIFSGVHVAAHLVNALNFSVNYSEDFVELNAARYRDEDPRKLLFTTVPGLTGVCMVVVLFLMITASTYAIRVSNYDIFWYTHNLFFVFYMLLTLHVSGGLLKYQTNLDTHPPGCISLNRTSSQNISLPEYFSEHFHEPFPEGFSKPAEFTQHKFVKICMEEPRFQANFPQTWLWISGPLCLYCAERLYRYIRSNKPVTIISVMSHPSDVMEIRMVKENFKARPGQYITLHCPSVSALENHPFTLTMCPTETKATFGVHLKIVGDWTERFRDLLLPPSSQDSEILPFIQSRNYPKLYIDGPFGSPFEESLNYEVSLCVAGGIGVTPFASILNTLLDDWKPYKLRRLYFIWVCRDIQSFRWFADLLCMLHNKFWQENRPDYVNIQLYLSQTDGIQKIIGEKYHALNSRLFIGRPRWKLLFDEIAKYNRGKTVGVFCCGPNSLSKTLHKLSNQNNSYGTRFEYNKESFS
Sequence (P13498 whole entry partner): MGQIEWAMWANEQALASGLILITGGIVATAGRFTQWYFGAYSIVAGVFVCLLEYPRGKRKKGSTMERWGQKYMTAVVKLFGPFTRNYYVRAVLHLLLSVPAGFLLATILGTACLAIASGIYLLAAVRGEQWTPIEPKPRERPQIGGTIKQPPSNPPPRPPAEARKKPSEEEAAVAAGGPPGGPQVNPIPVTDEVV
Experiment: Cell free membrane based in vitro NOX4 assay: H2O2 production by membranes expressing human NOX4, measured with Amplex Red
Details: class symbols
Method: The inhibition of NOX4 activity was measured as inhibition of formation of reactive oxygen species (ROS) from oxygen in cell free assays. […] Protein concentration was determined by Bradford reagent. H202 production by membranes expressing human NOX4 was measured using Amplex Red (Invitrogen) by following a slightly modified version of the manufacturer's instruction manual. […] IC50 value was calculated from concentration response curve by nonlinear regression analysis using GraphPad PRISM software.
pIC50: −log10 of the molar value.
QUANTITY: pIC50

Examples from the recorded data:
Cc1nn(-c2ccc(F)cc2Cl)c2[nH]c(-c3ccccc3Cl)c(O)c(=O)c12; < 6.82
Cn1nc(C(F)(F)F)c2c(=O)c(O)c(-c3c(F)cccc3Cl)[nH]c21; 6.82 to 7.00
Cn1nc(C(F)(F)F)c2c(=O)c(O)c(-c3ccc(Cl)cc3)[nH]c21; 6.82 to 7.00
CCc1nn(CCC2CCOCC2)c2[nH]c(-c3c(F)cccc3F)c(O)c(=O)c12; 7.00 to 7.30
Cn1nc(C(F)(F)F)c2c(=O)c(O)c(-c3ccccc3Cl)[nH]c21; > 7.30

Now for another entry.
Query block: Quick check: pIC50 of `Cc1cc2c(=O)c(O)c(-c3ccccc3Cl)[nH]c2s1` ?
Result block: < 6.82
